# method.description: Pharmacokinetics in female BALB/c nude mice bearing A375 xenografts, 1 day dosing (PK and PD study): plasma, tumor and brain concentrations, AUC
# Format: in vivo
# conditions.used: mouse, plasma, po; 3 mg/kg p.o. BID × 1 day; read-out: Plasma AUC at 24 hours, Average
measurement.kind: AUC at 24 h (ng·h/mL)
Respond with the bare value in ng·h/mL.

Using known records, supply AUC at 24 h for CCN(C)S(=O)(=O)Nc1ccc(F)c(Oc2ccc3ncn([C@H]4COC5(CCN(C6CC7(C6)CN(c6cc8c(cc6F)c(N6CCC(=O)NC6=O)nn8C)C7)CC5)C4)c(=O)c3c2)c1C#N
60200

###

# test.target: BRAF V600E (Homo sapiens, UniProt P15056+Q96SW2, V600E)
# Construct: knock-in of the HiBiT tag to the endogenous BRAF V600E locus; host or cells: A375.10 (A375 clonal line, CRISPR HiBiT knock-in at the endogenous BRAF V600E locus)
# Sequence (P15056 whole entry V600E): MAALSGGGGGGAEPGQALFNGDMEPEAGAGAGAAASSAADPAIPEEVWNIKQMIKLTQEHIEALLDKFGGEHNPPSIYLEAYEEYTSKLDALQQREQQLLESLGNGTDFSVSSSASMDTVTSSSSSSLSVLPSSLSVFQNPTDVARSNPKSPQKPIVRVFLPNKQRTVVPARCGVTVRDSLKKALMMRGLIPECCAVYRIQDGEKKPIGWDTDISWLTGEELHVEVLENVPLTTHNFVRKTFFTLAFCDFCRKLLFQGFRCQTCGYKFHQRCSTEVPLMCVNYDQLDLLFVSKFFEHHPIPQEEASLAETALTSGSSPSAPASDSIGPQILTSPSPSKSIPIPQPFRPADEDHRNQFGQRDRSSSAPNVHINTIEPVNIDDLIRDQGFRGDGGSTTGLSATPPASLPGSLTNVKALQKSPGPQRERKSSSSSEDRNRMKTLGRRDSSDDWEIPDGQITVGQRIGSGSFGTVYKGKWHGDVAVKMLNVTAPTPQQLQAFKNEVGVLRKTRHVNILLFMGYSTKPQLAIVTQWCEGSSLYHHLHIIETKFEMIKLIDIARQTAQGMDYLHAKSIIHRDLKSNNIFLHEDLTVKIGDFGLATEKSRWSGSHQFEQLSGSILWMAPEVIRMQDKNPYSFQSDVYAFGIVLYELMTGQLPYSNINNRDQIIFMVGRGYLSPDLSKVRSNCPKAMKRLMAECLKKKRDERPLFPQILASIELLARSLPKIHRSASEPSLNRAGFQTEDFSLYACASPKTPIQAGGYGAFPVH
# Sequence (Q96SW2 whole entry): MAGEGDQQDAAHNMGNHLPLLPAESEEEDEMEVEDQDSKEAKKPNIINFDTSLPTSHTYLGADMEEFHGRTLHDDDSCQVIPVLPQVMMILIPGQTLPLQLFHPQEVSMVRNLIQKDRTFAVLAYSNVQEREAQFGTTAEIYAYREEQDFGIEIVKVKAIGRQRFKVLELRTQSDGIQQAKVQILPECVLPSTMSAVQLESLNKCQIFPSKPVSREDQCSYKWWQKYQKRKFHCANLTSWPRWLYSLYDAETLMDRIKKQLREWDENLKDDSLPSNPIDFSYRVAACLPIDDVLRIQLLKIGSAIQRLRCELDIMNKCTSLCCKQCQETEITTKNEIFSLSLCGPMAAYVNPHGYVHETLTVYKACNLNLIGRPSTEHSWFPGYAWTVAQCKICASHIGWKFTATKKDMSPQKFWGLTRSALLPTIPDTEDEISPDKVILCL
# Sequence (Q16531 whole entry partner): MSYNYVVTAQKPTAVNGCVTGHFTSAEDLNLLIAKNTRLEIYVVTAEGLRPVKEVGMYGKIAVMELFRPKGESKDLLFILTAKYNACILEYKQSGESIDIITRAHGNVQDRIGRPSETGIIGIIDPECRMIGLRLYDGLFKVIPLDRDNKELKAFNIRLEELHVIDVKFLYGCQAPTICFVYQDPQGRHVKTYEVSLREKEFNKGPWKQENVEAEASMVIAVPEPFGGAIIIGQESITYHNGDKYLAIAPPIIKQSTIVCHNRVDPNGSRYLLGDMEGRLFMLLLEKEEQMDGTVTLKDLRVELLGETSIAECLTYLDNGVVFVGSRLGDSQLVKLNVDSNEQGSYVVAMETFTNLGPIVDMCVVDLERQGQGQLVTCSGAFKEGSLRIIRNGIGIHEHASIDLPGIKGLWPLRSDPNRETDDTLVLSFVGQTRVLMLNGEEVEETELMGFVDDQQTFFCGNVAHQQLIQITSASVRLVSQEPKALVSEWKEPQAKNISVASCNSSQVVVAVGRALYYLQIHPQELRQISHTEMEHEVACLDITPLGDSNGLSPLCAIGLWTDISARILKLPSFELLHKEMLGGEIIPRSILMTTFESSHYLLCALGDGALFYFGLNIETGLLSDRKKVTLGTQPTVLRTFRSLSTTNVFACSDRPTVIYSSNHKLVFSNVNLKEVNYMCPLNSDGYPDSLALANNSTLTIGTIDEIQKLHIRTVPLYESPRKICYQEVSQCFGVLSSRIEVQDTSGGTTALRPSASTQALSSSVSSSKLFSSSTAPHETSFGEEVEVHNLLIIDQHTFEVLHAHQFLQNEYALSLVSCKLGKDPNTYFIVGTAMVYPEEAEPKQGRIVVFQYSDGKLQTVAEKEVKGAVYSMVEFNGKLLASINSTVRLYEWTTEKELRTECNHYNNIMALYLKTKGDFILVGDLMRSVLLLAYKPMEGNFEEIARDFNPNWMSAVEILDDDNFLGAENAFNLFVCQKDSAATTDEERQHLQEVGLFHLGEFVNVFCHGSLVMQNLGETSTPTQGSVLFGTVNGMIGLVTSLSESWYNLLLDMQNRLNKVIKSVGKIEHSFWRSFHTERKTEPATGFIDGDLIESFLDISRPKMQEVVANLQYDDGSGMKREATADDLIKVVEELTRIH
# method.description: BRAF V600E HiBiT Degradation Assay
# Assay type: cell-based
# conditions.used: A375.10 cells, BRAF V600E, 2 hours; residual protein remaining; read-out: HiBiT-Degradation A375.10 BRAF 2 hours Emax
measurement.kind: Emax

Below are worked cases with known answers.
{"compound": "CN(CCO)S(=O)(=O)Nc1ccc(F)c(Oc2ccc3ncn([C@H]4COC5(CCN(C6CCC(c7ccc(NC8CCC(=O)NC8=O)cc7F)CC6)CC5)C4)c(=O)c3c2)c1C#N (single isomer, unassigned) [Compound 76]", "Emax": "< 50%"}
{"compound": "CCN(C)S(=O)(=O)Nc1ccc(F)c(Oc2ccc3ncn(C4CC5(C4)CN(C4CC6(C4)CN(c4cc7c(cc4F)c(N4CCC(=O)NC4=O)nn7C)C6)C5)c(=O)c3c2)c1C#N (stereo not drawn) [Compound 305]", "Emax": "< 50%"}

Next compound, Emax to be filled in.
Using known records, supply Emax for CCN(C)S(=O)(=O)Nc1ccc(F)c(Oc2ccc3ncc(C4CC5(C4)CN(C4CCC(c6cc7c(cc6F)c(N6CCC(=O)NC6=O)nn7C)CC4)C5)nc3c2)c1C#N (single isomer, unassigned) [Compound 297]
50 to 90%

###

Listing of entries alongside the reported Emax.
# test.target: BRAF V600E (Homo sapiens, UniProt P15056+Q96SW2, V600E)
# Construct: knock-in of the HiBiT tag to the endogenous BRAF V600E locus; host or cells: A375.10 (A375 clonal line, CRISPR HiBiT knock-in at the endogenous BRAF V600E locus)
# method.description: BRAF V600E HiBiT Degradation Assay
# Format: cell-based
# conditions.used: A375.10 cells, BRAF V600E, 2 hours; residual protein remaining; read-out: HiBiT-Degradation A375.10 BRAF 2 hours Emax
# Experimental: Compounds of this invention were tested for degradation of mutant BRAF V600E using the HiBiT assay, a luminescence-based assay for quantification of cellular protein levels using the Nano-Glo® HiBiT Lytic Detection System (Catalog No. N3050, Promega, Madison, WI USA). […] Data were analyzed with a 4-parameter logistic fit to generate sigmoidal dose-response curves. […]

{"compound": "CCN(C)S(=O)(=O)Nc1ccc(F)c(Oc2ccc3ncn(C4CC5(CCN(CC6CCN(c7cc8c(cc7F)c(N7CCC(=O)NC7=O)nn8C)CC6)CC5)C4)c(=O)c3c2)c1C#N [Compound 255]", "test.target": "BRAF V600E (Homo sapiens, UniProt P15056+Q96SW2, V600E)", "measurement.kind": "Emax", "measured.value": "50 to 90%"}
{"compound": "CO[C@@H]1CCN(S(=O)(=O)Nc2ccc(F)c(Oc3ccc4ncn([C@H]5COC6(CCN(C7CCC(c8ccc(NC9CCC(=O)NC9=O)cc8F)CC7)CC6)C5)c(=O)c4c3)c2C#N)C1 (single isomer, unassigned) [Compound 109]", "test.target": "BRAF V600E (Homo sapiens, UniProt P15056+Q96SW2, V600E)", "measurement.kind": "Emax", "measured.value": "< 50%"}
{"compound": "CCN(C)S(=O)(=O)Nc1ccc(F)c(Oc2ccc3ncn([C@H]4CCC5(CCN(C6CCC(c7ccc(NC8CCC(=O)NC8=O)cc7F)CC6)CC5)C4)c(=O)c3c2)c1C#N (single isomer, unassigned) [Compound 24]", "test.target": "BRAF V600E (Homo sapiens, UniProt P15056+Q96SW2, V600E)", "measurement.kind": "Emax", "measured.value": "< 50%"}

Using known records, supply Emax for CO[C@H]1CCN(S(=O)(=O)Nc2ccc(F)c(Oc3ccc4ncn([C@H]5COC6(CCN(C7CCC(c8ccc(NC9CCC(=O)NC9=O)cc8F)CC7)CC6)C5)c(=O)c4c3)c2C#N)C1 (single isomer, unassigned) [Compound 140]
< 50%

###

# method.description: Pharmacokinetics in female BALB/c nude mice bearing A375 xenografts, 1 day dosing (PK and PD study): plasma, tumor and brain concentrations, AUC
# Type: in vivo
# conditions.used: mouse, plasma, po, 1.5 mg/kg, Compound 141; 1.5 mg/kg p.o. BID × 1 day; post 1st dose; 2 h; read-out: Mean Concentration in Plasma ± SEM
measurement.kind: concentration at 2 h (ng/mL)
Respond with the bare value in ng/mL.

Using known records, supply concentration at 2 h for CCN(C)S(=O)(=O)Nc1ccc(F)c(Oc2ccc3ncn(C4CC5(CCN(C6CC7(C6)CN(c6cc8c(cc6F)c(N6CCC(=O)NC6=O)nn8C)C7)CC5)C4)c(=O)c3c2)c1C#N (stereo not shown) [Compound 141]
1610

###

# method.description: Example 9 pharmacokinetics assay for the PK and PD study Part I, II and III (plasma, tumor, liver)
# Assay type: in vivo, BALB/c nude mice
# conditions.used: mouse, liver, po; 100 mg/kg, p.o., single dose; 12 h; ± SEM; read-out: Mean Concentration in Liver
measurement.kind: concentration at 12 h (ng/g)
Respond with the bare value in ng/g.

Using known records, supply concentration at 12 h for CC(C)(C)c1nc(-c2cccc(NS(=O)(=O)c3c(F)cccc3F)c2F)c(-c2ccnc(N)n2)s1 [Dabrafenib, dabrafenib, reference compound]
277

###

# method.description: Pharmacokinetics after 21 days dosing in the efficacy study (plasma, tumor and brain concentrations; plasma AUC at steady state), Example 14
# Assay type: in vivo, female BALB/c nude mice
# conditions.used: mouse, plasma, po; 0.75 mg/kg p.o. BID x 21 days; 2 h; mean ± SEM
measurement.kind: concentration at 2 h (ng/mL)
Respond with the bare value in ng/mL.

Using known records, supply concentration at 2 h for CCN(C)S(=O)(=O)Nc1ccc(F)c(Oc2ccc3ncn(C4CC5(CCN(C6CC7(C6)CN(c6cc8c(cc6F)c(N6CCC(=O)NC6=O)nn8C)C7)CC5)C4)c(=O)c3c2)c1C#N (stereo not shown)
1280

###

# method.description: Pharmacokinetics after 21 days dosing in the efficacy study (plasma, tumor and brain concentrations; plasma AUC at steady state), Example 14
# Type: in vivo, female BALB/c nude mice
# conditions.used: mouse, plasma, po; 10 mg/kg p.o. BID x 21 days; 0.25 h; mean ± SEM
measurement.kind: concentration at 0.25 h (ng/mL)
Respond with the bare value in ng/mL.

Using known records, supply concentration at 0.25 h for CCN(C)S(=O)(=O)Nc1ccc(F)c(Oc2ccc3ncn([C@H]4COC5(CCN(C6CC7(C6)CN(c6cc8c(cc6F)c(N6CCC(=O)NC6=O)nn8C)C7)CC5)C4)c(=O)c3c2)c1C#N [Compound 26]
8790

###

# test.target: BRAF V600E (Homo sapiens, UniProt P15056+Q96SW2, V600E)
# Construct: knock-in of the HiBiT tag to the endogenous BRAF V600E locus; host or cells: A375.10 (A375 clonal line, CRISPR HiBiT knock-in at the endogenous BRAF V600E locus)
# method.description: BRAF V600E HiBiT Degradation Assay
# Assay type: cell-based
# conditions.used: A375.10 cells, BRAF V600E, 2 hours; residual protein remaining; read-out: HiBiT-Degradation A375.10 BRAF 2 hours Emax
measurement.kind: Emax

{"compound": "CCN(C)S(=O)(=O)Nc1ccc(F)c(Oc2ccc3ncn(CCC4CCN(C5CCC(c6cc7c(cc6F)c(N6CCC(=O)NC6=O)nn7C)CC5)CC4)c(=O)c3c2)c1C#N (single isomer, unassigned) [Compound 137]", "test.target": "BRAF V600E (Homo sapiens, UniProt P15056+Q96SW2, V600E)", "Emax": "50 to 90%"}
{"compound": "CCN(C)S(=O)(=O)Nc1ccc(F)c(Nc2ccc3ncn([C@H]4COC5(CCN(C6CCC(c7ccc(NC8CCC(=O)NC8=O)cc7F)CC6)CC5)C4)c(=O)c3c2)c1C#N (single isomer, unassigned) [Compound 56]", "test.target": "BRAF V600E (Homo sapiens, UniProt P15056+Q96SW2, V600E)", "Emax": "< 50%"}
{"compound": "CCN(C)S(=O)(=O)Nc1ccc(F)c(Oc2ccc3ncn(C4CC5(C4)CN(CC4CCN(c6cc7c(cc6F)c(N6CCC(=O)NC6=O)nn7C)CC4)C5)c(=O)c3c2)c1C#N [Compound 296]", "test.target": "BRAF V600E (Homo sapiens, UniProt P15056+Q96SW2, V600E)", "Emax": "50 to 90%"}
{"compound": "CN(CCO)S(=O)(=O)Nc1ccc(F)c(Oc2ccc3ncn([C@H]4COC5(CCC(N6CCC(c7cc8c(cc7F)c(N7CCC(=O)NC7=O)nn8C)C(F)(F)C6)CC5)C4)c(=O)c3c2)c1C#N (single isomer, unassigned) [Compound 212]", "test.target": "BRAF V600E (Homo sapiens, UniProt P15056+Q96SW2, V600E)", "Emax": "< 50%"}
{"compound": "CCN(C)S(=O)(=O)Nc1ccc(F)c(Oc2ccc3ncc(CC4CCN(C5CCC(c6cc7c(cc6F)c(N6CCC(=O)NC6=O)nn7C)CC5)CC4)nc3c2)c1C#N (single isomer, unassigned) [Compound 149]", "test.target": "BRAF V600E (Homo sapiens, UniProt P15056+Q96SW2, V600E)", "Emax": "< 50%"}

Using known records, supply Emax for CCN(C)S(=O)(=O)Nc1ccc(F)c(Oc2ccc3ncn([C@@H]4C[C@@H]5CN(C6CCC(c7cc8c(cc7F)c(N7CCC(=O)NC7=O)nn8C)CC6)C[C@@H]5C4)c(=O)c3c2)c1C#N (single isomer, unassigned) [Compound 16]
50 to 90%

Using known records, supply Emax for CCN(C)S(=O)(=O)Nc1ccc(F)c(Oc2ccc3ncn([C@H]4COC5(C4)CN(C4CC6(C4)CN(c4cc7c(cc4F)c(N4CCC(=O)NC4=O)nn7C)C6)C5)c(=O)c3c2)c1C#N [Compound 310]
< 50%

Using known records, supply Emax for CO[C@@H]1CCN(S(=O)(=O)Nc2ccc(F)c(Oc3ccc4ncn(C5CC6(CCN(C7CCC(c8cc9c(cc8F)c(N8CCC(=O)NC8=O)nn9C)CC7)CC6)C5)c(=O)c4c3)c2C#N)C1 (single isomer, unassigned) [Compound 101]
< 50%

Using known records, supply Emax for CN(CCO)S(=O)(=O)Nc1ccc(F)c(Oc2ccc3ncn([C@H]4COC5(CCN([C@H]6C[C@@H](c7ccc(NC8CCC(=O)NC8=O)cc7F)C6)CC5)C4)c(=O)c3c2)c1C#N (stereo partly drawn) [Compound 168]
50 to 90%

Cited source for all entries: patent US20260297060A1
